Source of measurements: patent US20240002497A1

tgt: T1, huNav1.7α (human, UniProt Q15858 1-1988)
T1 construct: HEK cells expressing the α subunit alone; also called HEKa; HEK huNav1.7α
measurement description: binding FACS, HEKa cells
parameter: EC50 (nM)

Example results:
binder: F010301557 (VHH, vs 387G05: D23A, D53G, D54G) VHH: EVQLVESGGGLVQAGGSLRLSCAASGRILRIGYMRWHRQGAGKQREFVARITGGSATDYADSVKGRFTISRDNAKNTVYLQMNNLNPEDTAVYYCEALVTASVRGGSIHSGTYWGRGTLVTVSS
parameter: EC50
units text: nM
endpoint value: 2
//
binder: F010300536 (VHH, vs F0103265A11: N58T) VHH: EVQLVESGGGLVQPGGSLRLSCAASGMLFNANTQGWYRQAPGKQRELVAFIFSGGYTTYVDSVKGRFTISRDNAKRTMYLQMNSLKPEDSAIYYCSLSRYLGQGTLVTVSS
parameter: EC50
units text: nM
endpoint value: 660
//
binder: F010301314 (VHH, vs 387G05: D23A) VHH: EVQLVESGGGLVQAGGSLRLSCAASGRILRIGYMRWHRQGAGKQREFVARITDDSATDYADSVKGRFTISRDNAKNTVYLQMNNLNPEDTAVYYCEALVTASVRGGSIHSGTYWGRGTLVTVSS
parameter: EC50
units text: nM
endpoint value: 1.9
//
binder: F010301556 (VHH, also called F0103387G05(D23A, D53G, D54G, D58G)) VHH: EVQLVESGGGLVQAGGSLRLSCAASGRILRIGYMRWHRQGAGKQREFVARITGGSATGYADSVKGRFTISRDNAKNTVYLQMNNLNPEDTAVYYCEALVTASVRGGSIHSGTYWGRGTLVTVSS
parameter: EC50
units text: nM
endpoint value: 1.8
//
binder: F010301344 (VHH, vs 387G05: D54G) VHH: EVQLVESGGGLVQAGGSLRLSCDASGRILRIGYMRWHRQGAGKQREFVARITDGSATDYADSVKGRFTISRDNAKNTVYLQMNNLNPEDTAVYYCEALVTASVRGGSIHSGTYWGRGTLVTVSS
parameter: EC50
units text: nM
endpoint value: 1.3
//
binder: F010301562 (VHH, vs 387G05: D23A, D54G) VHH: EVQLVESGGGLVQAGGSLRLSCAASGRILRIGYMRWHRQGAGKQREFVARITDGSATDYADSVKGRFTISRDNAKNTVYLQMNNLNPEDTAVYYCEALVTASVRGGSIHSGTYWGRGTLVTVSS
parameter: EC50
units text: nM
endpoint value: 1.2

(I) F010301080 (VHH, also called F0103265A11(S53W, T57V, N58T, V60N)) VHH: EVQLVESGGGLVQPGGSLRLSCAASGMLFNANTQGWYRQAPGKQRELVAFIFWGGYVTYNDSVKGRFTISRDNAKRTMYLQMNSLKPEDSAIYYCSLSRYLGQGTLVTVSS
(II) F010301346 (VHH, vs 387G05: D58G) VHH: EVQLVESGGGLVQAGGSLRLSCDASGRILRIGYMRWHRQGAGKQREFVARITDDSATGYADSVKGRFTISRDNAKNTVYLQMNNLNPEDTAVYYCEALVTASVRGGSIHSGTYWGRGTLVTVSS
(III) F010300535 (VHH, vs F0103265A11: S53W) VHH: EVQLVESGGGLVQPGGSLRLSCAASGMLFNANTQGWYRQAPGKQRELVAFIFWGGYTNYVDSVKGRFTISRDNAKRTMYLQMNSLKPEDSAIYYCSLSRYLGQGTLVTVSS
Q: Order the records so the highest EC50 appears first and the lowest last. Use the labels to give the requested order.
A: III, I, II
(III: 720 nM, I: 26 nM, II: 1.5 nM)
